Biological target: mTOR (Homo sapiens)
Construct: FLAG; made in house
Sequence (P42345 1362-2549): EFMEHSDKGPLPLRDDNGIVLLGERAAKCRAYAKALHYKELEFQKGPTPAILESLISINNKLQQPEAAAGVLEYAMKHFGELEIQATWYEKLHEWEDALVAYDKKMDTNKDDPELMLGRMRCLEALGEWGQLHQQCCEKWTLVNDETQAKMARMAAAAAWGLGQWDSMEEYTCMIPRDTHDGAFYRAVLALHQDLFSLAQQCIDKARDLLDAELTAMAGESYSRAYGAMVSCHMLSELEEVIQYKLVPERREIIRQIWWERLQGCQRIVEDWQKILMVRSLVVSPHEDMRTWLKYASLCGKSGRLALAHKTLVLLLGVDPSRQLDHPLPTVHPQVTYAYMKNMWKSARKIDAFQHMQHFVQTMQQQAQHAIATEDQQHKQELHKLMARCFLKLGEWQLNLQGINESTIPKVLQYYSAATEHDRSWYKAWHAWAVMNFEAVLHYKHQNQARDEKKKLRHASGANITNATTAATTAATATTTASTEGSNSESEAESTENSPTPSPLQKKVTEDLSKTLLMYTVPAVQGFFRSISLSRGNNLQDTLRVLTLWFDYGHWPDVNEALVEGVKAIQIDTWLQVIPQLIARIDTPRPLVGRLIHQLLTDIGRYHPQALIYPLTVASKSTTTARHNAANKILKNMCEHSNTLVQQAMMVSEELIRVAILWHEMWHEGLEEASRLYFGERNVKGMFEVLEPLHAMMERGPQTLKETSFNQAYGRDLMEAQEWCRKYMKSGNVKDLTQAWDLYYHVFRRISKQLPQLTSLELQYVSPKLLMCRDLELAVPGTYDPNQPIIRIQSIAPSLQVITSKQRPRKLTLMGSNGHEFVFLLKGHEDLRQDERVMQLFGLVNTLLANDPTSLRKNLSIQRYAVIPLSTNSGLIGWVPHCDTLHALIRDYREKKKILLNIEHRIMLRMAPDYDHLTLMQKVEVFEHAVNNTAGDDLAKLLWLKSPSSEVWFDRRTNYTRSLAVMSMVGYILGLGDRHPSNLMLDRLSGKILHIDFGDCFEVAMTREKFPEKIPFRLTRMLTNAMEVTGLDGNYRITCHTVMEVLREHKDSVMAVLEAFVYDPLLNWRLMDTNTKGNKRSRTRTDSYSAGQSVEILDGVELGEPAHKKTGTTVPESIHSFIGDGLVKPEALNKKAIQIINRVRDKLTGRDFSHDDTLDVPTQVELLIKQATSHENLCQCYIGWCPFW
Experiment: In Vitro mTOR Kinase Assay (Echo), Test (a)(ii)
Type: biochemical
Conditions: table of enzyme assay Test (a)(ii); read-out: Test (a)(ii) IC50
Description: (a)(ii) In Vitro mTOR Kinase Assay (Echo) The assay used AlphaScreen technology (Gray et al., Analytical Biochemistry, 2003, 313: 234-245) to determine the ability of test compounds to inhibit phosphorylation by recombinant mTOR. A C-terminal truncation of mTOR encompassing amino acid residues 1362 to 2549 of mTOR (EMBL Accession No. L34075) was stably expressed as a FLAG-tagged fusion in HEK293 cells as described by Vilella-Bach et al., Journal of Biochemistry, 1999, 274, 4266-4272. […]
Measured quantity: IC50 (nM)

Please review the entries below; each comes with its answer.
Molecule	Tested on	Unit name	IC50
C[C@H]1COCCN1c1cc(C2(S(=O)(=O)CCO)CC2)nc(-c2ccc(NC(=O)NCCO)cc2)n1 [Example 16b]	mTOR (Homo sapiens)	nM	5.77
CCCNC(=O)Nc1ccc(-c2nc(N3CCOC[C@@H]3C)cc(C3(S(=O)(=O)c4nc(C)cs4)CC3)n2)cc1 [Example 25h]	mTOR (Homo sapiens)	nM	0.993
C[C@H](CO)NC(=O)Nc1ccc(-c2nc(N3CCOC[C@@H]3C)cc(C3(S(=O)(=O)c4ccc(F)cc4)CCC3)n2)cc1 [Example 65e]	mTOR (Homo sapiens)	nM	11.4
C[C@H]1COCCN1c1cc(C2(S(=O)(=O)C3CCOCC3)CC2)nc(-c2ccc(NC(=O)NC3CCC3)cc2)n1 [Example 94f]	mTOR (Homo sapiens)	nM	15.1
C[C@H]1COCCN1c1cc(C2(S(=O)(=O)c3ccccn3)CCC2)nc(-c2ccc(NC(=O)Nc3cnn(C)c3)cc2)n1 [Example 36aj]	mTOR (Homo sapiens)	nM	2.55

1 = CCNC(=O)Nc1ccc(-c2nc(N3CCOC[C@@H]3C)cc(C3(S(=O)(=O)C4CCOC4)CC3)n2)cc1 (some centres unmarked) [Example 94h]
2 = CNC(=O)Nc1ccc(-c2nc(N3CCOC[C@@H]3C)cc(C3(S(=O)(=O)c4cc(F)ccc4C)CC3)n2)cc1 [Example 61]
3 = C[C@H]1COCCN1c1cc(C2(S(=O)(=O)c3ccccc3)CC2)nc(-c2ccc(NC(=O)NCCO)cc2)n1 [Example 36bh]
4 = C[C@H]1COCCN1c1cc(C2(S(=O)(=O)c3ccc(F)cc3)CC2)nc(-c2ccc(NC(=S)NCCO)cc2)n1 [Example 37u]
5 = CCNC(=O)Nc1ccc(-c2nc(N3CCOC[C@@H]3C)cc(C3(S(=O)(=O)c4cccc(F)c4)CC3)n2)cc1 [Example 53e]
Query: Sort (5 molecules) by IC50: min first. Please list the labels in the order you were asked to rank them.
Response: 4, 3, 5, 1, 2
(4: 0.395 nM, 3: 1.37 nM, 5: 1.98 nM, 1: 11.6 nM, 2: 26.9 nM)

1 = CCNC(=O)Nc1ccc(-c2nc(N3CCOCC3)cc(C3(S(=O)(=O)c4ccc(F)cc4)CC3)n2)cc1 [Example 36ao]
2 = C[C@H]1COCCN1c1cc(C2(S(=O)(=O)CCCOC(F)F)CC2)nc(-c2ccc(NC(=O)NCC(F)F)cc2)n1 [Example 96b]
Query: Of 1 and 2 , which carries the smaller reported IC50 figure? Refer to your chosen item by its label in the answer.
Response: 1
(1: 14 nM, 2: 26.8 nM)

1 = C[C@H]1COCCN1c1cc(C2(S(=O)(=O)CCCO)CC2)nc(-c2ccc(NC(=O)NC#N)cc2)n1 [Example 36co]
2 = Cc1ccc(F)cc1S(=O)(=O)C1(c2cc(N3CCOC[C@@H]3C)nc(-c3ccc(NC(=O)NCCF)cc3)n2)CC1 [Example 61c]
Query: Input pair: 1 , 2 . Output: entry with lower IC50. Your answer should be the label of the entry you select.
Response: 2
